Source: patent US9255094B2

Overview of reported inhibition at 1 µM across a group of molecules:
TARGET UNDER TEST: human recombinant adrenergic α2B receptor (Homo sapiens, UniProt P18089)
Construct: expressed in transfected cells; host or cells: Chinese hamster ovary (CHO-K1) cells
Sequence (P18089 1-450): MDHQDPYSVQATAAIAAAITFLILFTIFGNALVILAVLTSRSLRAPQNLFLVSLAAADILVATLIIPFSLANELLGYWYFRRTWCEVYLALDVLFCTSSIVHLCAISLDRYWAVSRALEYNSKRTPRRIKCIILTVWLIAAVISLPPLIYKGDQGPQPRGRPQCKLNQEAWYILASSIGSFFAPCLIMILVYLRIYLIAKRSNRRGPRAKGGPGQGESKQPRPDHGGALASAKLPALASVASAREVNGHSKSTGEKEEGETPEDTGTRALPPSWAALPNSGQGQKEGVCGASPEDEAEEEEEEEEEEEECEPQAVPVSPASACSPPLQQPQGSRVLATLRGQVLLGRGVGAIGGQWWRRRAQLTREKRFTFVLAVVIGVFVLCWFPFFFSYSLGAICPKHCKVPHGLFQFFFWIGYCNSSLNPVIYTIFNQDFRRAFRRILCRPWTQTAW
METHOD NOTES: Adrenergic α2B radioligand binding assay ([3H]Rauwolscine)
PROTOCOL CONDITIONS: compound at 1 μM; 2.5 nM [3H]Rauwolscine; CHO-K1 cells; read-out: Percent Inhibition of ligand binding, Adrenergic (1 μM) a2B
Method: To evaluate in radioligand binding assays the activity of compounds of the invention, human recombinant adrenergic α2B receptor expressed in Chinese hamster ovary (CHO-K1) cells (Uhlen S et al., Eur. J. Pharmacol. 343(1):93, 1998) in a modified Tris-HCl buffer (50 mM Tris-HCl, pH 7.4, 12.5 mM MgCl2, 1 mM EDTA, 0.2% BSA) was used. […] Receptor proteins were filtered and washed, the filters were then counted to determine [^3H]Rauwolscine specifically bound.
Express your answer in %, writing the number without its unit.

MOLECULE	TEST READOUT	MEASURED
CN1CCc2c(c3cc(Cl)ccc3n2CC(=O)c2ccccc2)C1 [Compound 1-36]	inhibition at 1 µM	92
CN1CCc2c(c3cc(Cl)ccc3n2CC(=O)c2ccc(Cl)cc2)C1 [Compound 1-38]	inhibition at 1 µM	92
Cc1ccc2c(c1)c1c(n2CCc2ccc(C(F)(F)F)nc2)CCNC1 [Compound 1-41]	inhibition at 1 µM	89

# evaluate next
Record request: inhibition at 1 µM value, item Cc1ccc2c(c1)c1c(n2CC(=O)c2ccc(F)cc2)CCN(C)C1 [Compound 1-39]
92
